For each of the compounds below, state its melting point.

Take a look at these entries with their results.
Task: // lookup melting point for N#Cc1ccc(C(=O)N[C@@H](Cc2c[nH]c3ccccc23)C(=O)O)cc1
Output: 125 to 127 °C

Task: // lookup melting point for COc1cc(OC)c2c(=O)[nH]c(-c3cc(C)c(OCCN(C)C)c(C)c3)cc2c1
Output: 261 to 263 °C

Task: // lookup melting point for CC(C)CCCC(C)C1CCC2C3CC=C4CC(OCCC#CCCOC(c5ccccc5)(c5ccccc5)c5ccccc5)CCC4(C)C3CCC12C (configuration not stated)
Output: 112 to 113 °C

Task: // lookup melting point for CC1(C)CC(C)(c2ccc(O)cc2)c2cc(O)ccc21 (configuration not stated)
Output: 202 °C

Task: // lookup melting point for CC(C)(C)OC(=O)N1CC(c2n[nH]c(-c3ccccn3)n2)C1
Output: 220 °C

Task: // lookup melting point for CC(O)(CCC#N)c1ccc(Oc2cccc(Cl)c2)cc1 (configuration not stated)
Output: 68 to 70 °C

State recorded melting point for all listed compounds.
1. Nc1cccc(-c2ccc(CCN3CC4C(C3)C4NC(=O)Cc3ccc(F)cc3)cc2)n1 (configuration not stated)
2. O=C(O)c1cccc(Oc2ncccc2OCCCc2ccncc2)c1

Output:
1. 161 to 163 °C
2. 208 to 209 °C

State recorded melting point for all listed compounds.
1. CCOc1nn(-c2ccc(C(F)(F)F)cn2)cc1CCCOc1ccc(CCC(=O)O)cc1O
2. CC(Cc1sc2ccc(Cl)cc2c1Cl)=NO
3. Cn1cc(C(=O)NCc2ccc(Cl)cc2)c(=O)c2cccc(C#CCCO)c21
4. CC(=O)Nc1ccc(NCCNS(C)(=O)=O)cc1
5. CCOc1cc(C(=O)c2ccccn2)ccc1OCCOc1c(CC(=O)O)cccc1OC
6. COc1ccc(-c2ccc(OC(CCC3=CCCCC3)C(=O)O)cc2)cc1 (configuration not stated)

Output:
124 to 125 °C
133 to 138 °C
195 to 197 °C
130 °C
184 to 186 °C
152 to 154 °C

State recorded melting point for all listed compounds.
1. O=C1Nc2cc(NC(=O)c3c[nH]cc(-c4cccc(Cl)c4)c3=O)ccc2/C1=C/c1ccc[nH]1
2. O=[N+]([O-])c1ccc(Oc2ccccc2)c(Cl)c1Oc1ccccc1
3. CNC(=O)NN(CC(=O)OC)c1cccc(I)c1
4. CS(=O)(=O)c1ccc(Oc2ccc(Oc3ccccc3)cc2)nc1
5. Cc1c(CCl)oc2ccc([N+](=O)[O-])cc12

Output:
1: > 300 °C; 2: 106 to 107 °C; 3: 150 °C; 4: 136 to 138 °C; 5: 141 to 142 °C

###

For each of the molecules below, state its melting point.

Task: // lookup melting point for CC(=O)Nc1cc(C(F)(F)F)ccc1S(=O)CC#N (configuration not stated)
Output: 149 to 151 °C

State recorded melting point for all listed molecules.
1. CC(=O)Oc1cc([N+](=O)[O-])cc([N+](=O)[O-])c1OC(C)=O
2. Cn1c(=O)n(-c2ccccc2)c(=O)n1SC(Cl)(Cl)Cl
3. COC(=O)OC1CCC2C3CCC4=CC(=O)CCC4(C)C3CCC12C (configuration not stated)
4. COc1cccc2c1nc(C(F)F)n2-c1nc(-c2cncnc2)cc(N2CCOCC2)n1
5. CC(C)(C)c1ccc(OC(CC(=O)O)C(=O)O)c(C(C)(C)C)c1 (configuration not stated)
6. CC1CC(=O)NN=C1c1ccc2c(c1)N(C(C)C)C(=O)C(C)O2 (configuration not stated)

Output:
115 to 117 °C
154 °C
140 to 141 °C
222 to 224 °C
177 to 181 °C
204 to 205 °C
